The values you see were collected from patent US20170355757A1.

Target: T1, human C5 R885C-mmh (human, UniProt P01031 19-1676)
T1 construct: also called human C5 variant R885C
Assay: SPR, mAb captured via anti-hFc, 25C
MEASURED QUANTITY: pKd
One number for each entry, as −log10 of the molar value.

{"BINDER": "H4H12169P (antibody, human IgG4, V domains shown, Human IgG4 Fc with S108P hinge mutation (H4H)) VH: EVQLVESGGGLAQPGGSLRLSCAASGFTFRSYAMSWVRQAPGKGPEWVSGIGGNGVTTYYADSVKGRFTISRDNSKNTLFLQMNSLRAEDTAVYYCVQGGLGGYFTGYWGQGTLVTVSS VL: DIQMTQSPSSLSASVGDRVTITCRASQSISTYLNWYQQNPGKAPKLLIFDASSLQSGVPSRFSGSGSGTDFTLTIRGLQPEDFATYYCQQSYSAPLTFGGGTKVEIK", "pKd": 9.60}

// query Query: pKd; subject: H4H12175P (antibody, human IgG4, V domains shown, Human IgG4 Fc with S108P hinge mutation (H4H)) VH: EVQLVESGGGVVQPGGSLRLSCAASGFTFNDYAMHWVRQAPGKGLEWVSLISGDGGNTYYADSVKGRLTISRDNSKNSLYLQMNSLRTEDTALYYCAKDKGWNFGYFDLWGRGTLVTVSS VL: DIQMTQSPSSLSTSVGDRVTITCRASQNIDTYLNWYQQKPGKAPKLLIYDASSLQSGVPSRFSGSGSGTDFTLTITSLQPEDFATYYCQQNDNILHPLTFGGGTKVEIK
// result 6.72
